- Tested on: NCI-H522
- assay_details: NCI tumour cell line growth inhibition, 48 h
Calls of active or inactive are those of the source. No stated cut-off is given here; in the data, active = GI50 up to about 1.1 µM and inactive = higher. Square brackets hold non-standard residues; d marks the D form. Peptide text beside a SMILES is read from it. * marks the point of attachment. ξ: configuration not given here. Propanoyl(3-(4-MeO-Ph)) = COc1ccc(CCC(=O)*)cc1; Thr(3ξ) = CC(O)[C@H](N)C(=O)O; dNMeL = CN[C@H](CC(C)C)C(=O)O; ξLac = CC(O)C(=O)O
readout_type: GI50

Ask: Please look at this compound and report its GI50: `CCOC(=O)C(C(=O)OCC)C(=O)c1ccccc1C(=O)c1ccccc1`
Reply: > 100 µM (inactive)

Ask: Please look at this compound and report its GI50: `O=C(O)CSc1ccccc1C(=O)O`
Reply: > 100 µM (inactive)

Ask: Please look at this compound and report its GI50: CCCCCCCCCCCCCCCCCCNc1ccn(C2OC(COP(=O)(O)O)C(O)C2O)c(=O)n1 (stereo unspecified)
Reply: > 100 µM (inactive)

Ask: Please look at this compound and report its GI50: COC(=O)[C@@H](NC(=O)[C@@H](CC(C)C)N(C)C(=O)[C@@H]1CCCN1C(=O)C(C)O)C(C)OC(=O)CCc1ccc(OC)cc1 (stereo partly specified) (H-[ξLac]P[dNMeL][Thr(3ξ)](Propanoyl(3-(4-MeO-Ph)))-OMe)
Reply: > 100 µM (inactive)

Ask: Please look at this compound and report its GI50: `CCCCc1ccc(N2C(=O)c3cccnc3S2(=O)=O)cc1`
Reply: > 100 µM (inactive)

Ask: Please look at this compound and report its GI50: `Oc1cc(CN2COc3ccccc32)c(O)cc1CNC1CCCCC1`
Reply: 14.1 µM (inactive)

====

- Tested on: UACC-257
- assay_details: NCI tumour cell line growth inhibition, 48 h
Calls of active or inactive are those of the source. No stated cut-off is given here; in the data, active = GI50 up to about 1.1 µM and inactive = higher.
Choose the fitting class; nothing outside t = active, f = inactive is accepted.

Ask: Please indicate how the test categorized O=C(O)C1CCCN1Cc1c[nH]c2ccccc12 (configuration not stated) .
Reply: f

Ask: Please indicate how the test categorized `O.O=C([O-])c1ccccc1Nc1ccccc1C(=O)[O-].[Zn+2]` .
Reply: f

Ask: Please indicate how the test categorized `Cc1c2c(n(Cc3ccccn3)c1C)NN=C(C#N)S2(=O)=O` .
Reply: f

Ask: Please indicate how the test categorized COc1ccc(OC)c(NC(=O)C(=O)C(C(=O)c2ccccc2F)C2OC(=O)c3ccccc32)c1 (configuration not stated) .
Reply: f

Ask: Please indicate how the test categorized `COc1cc(/C=N/c2ccccn2)cc(OC)c1OC` .
Reply: f

Ask: Please indicate how the test categorized `CC1=NN(c2nc(N)nc(CF)n2)C(C)(C)C1` .
Reply: f

Ask: Please indicate how the test categorized `O=Cc1c[nH]c2c(=O)[nH]cnc12` .
Reply: f

Ask: Please indicate how the test categorized COC(=O)CC[C@@H](NC(=O)C(C)NC(=O)COC1C(O)C(COC(=O)CCCCCCCCCCNC(=O)c2ccc([N+](=O)[O-])c3[nH]c4cc(Br)ccc4c(=O)c23)OC(OCc2ccccc2)C1NC(C)=O)C(N)=O (some centres not stated) .
Reply: f

Ask: Please indicate how the test categorized `CCN1CCN=C2c3cc(OC)ccc3Nc3c([N+](=O)[O-])ccc1c32` .
Reply: f

Ask: Please indicate how the test categorized Cc1ccc(S(=O)(=O)C(C#N)c2nc3ccccc3nc2N2CCOCC2)cc1 (configuration not stated) .
Reply: f

Ask: Please indicate how the test categorized `N#C/C(=C\NC(=S)c1ccncc1)c1nc2ccccc2s1` .
Reply: f

Ask: Please indicate how the test categorized `C(=N/Nc1ccc(-c2nc3ccccc3[nH]2)cc1)/c1c(-c2ccccc2)[nH]c2ccccc12` .
Reply: t

Ask: Please indicate how the test categorized `Cc1cccc2c(=O)c3cccc([C@@H](C)C(=O)O)c3oc12` .
Reply: f

Ask: Please indicate how the test categorized `CCOc1ccc(/C=C2/C(=O)N/C(=N\C(C)=O)N2C)cc1` .
Reply: f

Ask: Please indicate how the test categorized CCCC(=O)Nc1ncnc2c1ncn2C1OC2COP(=O)(O)OC2C1OC(=O)CCC (configuration not stated) .
Reply: f

Ask: Please indicate how the test categorized `OC(C/C(=N\N1CCCCC1)c1cccs1)(C(F)(F)F)C(F)(F)F` .
Reply: f

Ask: Please indicate how the test categorized `O=c1c(Cc2c(O)oc3cc(O)ccc3c2=O)c(O)oc2cc(O)ccc12` .
Reply: f

Ask: Please indicate how the test categorized CC1N[B@@-](C)(c2ccc(C(F)(F)F)cc2)OC1c1ccccc1 (some centres not stated) .
Reply: f

Ask: Please indicate how the test categorized `C/N=c1/ssc(=S)n1C(C)C` .
Reply: f

Ask: Please indicate how the test categorized `CCCCCCCCCCOC(=O)NCCC` .
Reply: f

Ask: Please indicate how the test categorized `CCOC(=O)C(=[N+]=[N-])C(=O)CN1C(=O)c2ccccc2C1=O` .
Reply: f

Ask: Please indicate how the test categorized CC[C@@]1(OC(=O)C(N)CCCCN)C(=O)OCc2c1cc1n(c2=O)Cc2cc3ccccc3nc2-1 (some centres not stated) .
Reply: t

====

- Test system: HL-60
- assay_details: NCI tumour cell line growth inhibition, 48 h
The source made the active and inactive calls. Rule as the data show it: active = GI50 up to about 1.1 µM and inactive = higher.
readout_type: GI50

Ask: Please look at this molecule and report its GI50: CC1(C)C(O)OC(O)C1(C)C (stereo not given)
Reply: 42.9 µM (inactive)

Ask: Please look at this molecule and report its GI50: COC(=O)C(C(=O)C(=O)Nc1ccccc1C)c1nc2ccc([N+](=O)[O-])cc2nc1O (stereo not given)
Reply: > 100 µM (inactive)

Ask: Please look at this molecule and report its GI50: `O=C1C(=Cc2cccs2)C(=O)N(CCc2ccccc2)S(=O)(=O)N1CCc1ccccc1`
Reply: 14 µM (inactive)

Ask: Please look at this molecule and report its GI50: NC(=O)C(c1ccccc1)N1OC2C(=O)N(Cc3ccccc3)C(=O)C2C1c1cccc(Oc2ccc(Cl)cc2)c1 (stereo not given)
Reply: 23.4 µM (inactive)

Ask: Please look at this molecule and report its GI50: CCC(C)N1CN(c2ccccc2)C2(CCN(CCCSc3ccc(F)cc3)CC2)C1=O (stereo not given)
Reply: 3.79 µM (inactive)

====

- Tested on: SK-MEL-2
- assay_details: NCI tumour cell line growth inhibition, 48 h
Activity calls are given as the source filed them. No stated cut-off is given here; in the data, active = GI50 up to about 1.1 µM and inactive = higher.
readout_type: GI50

Ask: Give GI50 only, for `O=C(CNc1ccc(Cl)cc1)Nn1c(-c2ccccc2)nc2ccccc2c1=O` , using SK-MEL-2 data.
Reply: 16 µM (inactive)

Ask: Give GI50 only, for `CCOC(=O)/C=C(\C)c1ccc(OC)cc1` , using SK-MEL-2 data.
Reply: > 100 µM (inactive)

Ask: Give GI50 only, for `O=S(=O)(N/N=C\c1c2ccccc2[n+]([O-])c2ccccc12)c1ccc(Cl)cc1` , using SK-MEL-2 data.
Reply: 46.1 µM (inactive)

Ask: Give GI50 only, for CCCCCCCCCCCCCCCCCCNc1ccn(C2OC(COP(=O)(O)O)C(O)C2O)c(=O)n1 (stereo unspecified) , using SK-MEL-2 data.
Reply: > 100 µM (inactive)

Ask: Give GI50 only, for CC(NS(=O)(=O)c1ccc(Cl)cc1)C(=O)O (stereo unspecified) , using SK-MEL-2 data.
Reply: > 100 µM (inactive)

Ask: Give GI50 only, for `COc1nc(Cl)c(Cl)c(Cl)n1.COc1nc(Cl)nc(Cl)c1Cl` , using SK-MEL-2 data.
Reply: 7.62 µM (inactive)

Ask: Give GI50 only, for CSc1nc(NC2OCC(O)C(O)C2O)c(N)c(=O)[nH]1 (stereo unspecified) , using SK-MEL-2 data.
Reply: > 100 µM (inactive)

Ask: Give GI50 only, for O=C(O)C12C3C4C1C1C2C3C41I (stereo unspecified) , using SK-MEL-2 data.
Reply: > 100 µM (inactive)

Ask: Give GI50 only, for `O=c1[nH]/c(=C/c2ccc(OCc3ccccc3)cn2)c(=O)[nH]/c1=C/c1ccc(Cl)cc1` , using SK-MEL-2 data.
Reply: 4.73 µM (inactive)

Ask: Give GI50 only, for `COC(=O)c1c(O)ccc2c1c1c(n2Cc2ccc(Cl)cc2Cl)C(=O)c2ccccc2C1=O` , using SK-MEL-2 data.
Reply: 14.2 µM (inactive)

Ask: Give GI50 only, for `COc1cc2nncc(Sc3cnnc4ccccc34)c2cc1OC` , using SK-MEL-2 data.
Reply: 16.7 µM (inactive)

====

- System: TK-10
- assay_details: NCI tumour cell line growth inhibition, 48 h
Active and inactive are the calls of the source. Cut-off read from the data, not from the text of the source: active = GI50 up to about 1.1 µM and inactive = higher.
readout_type: GI50

Ask: Please look at this molecule and report its GI50: `CCOC(=O)c1nc2ccccc2nc1Oc1ccc(C#N)cc1`
Reply: > 100 µM (inactive)

Ask: Please look at this molecule and report its GI50: `O=[N+]([O-])c1ccc(S(=O)(=O)Cc2ccccc2)c([N+](=O)[O-])c1`
Reply: 1.88 µM (inactive)

Ask: Please look at this molecule and report its GI50: CC(NC(=O)CNP(=O)(c1ccccc1)c1ccccc1)C(=O)NC(Cc1ccccc1)C(=O)OCc1ccccc1 (stereo not given)
Reply: > 100 µM (inactive)

Ask: Please look at this molecule and report its GI50: COP1(=O)OCc2cnccc2O1 (stereo not given)
Reply: > 100 µM (inactive)

Ask: Please look at this molecule and report its GI50: `N#Cc1cccc(-n2[nH]c(=O)ccc2=O)c1`
Reply: > 100 µM (inactive)

Ask: Please look at this molecule and report its GI50: `COC[C@H](Cc1ccccc1)/N=C/c1ccccc1`
Reply: > 100 µM (inactive)

Ask: Please look at this molecule and report its GI50: `O=c1c(Cc2c(O)oc3cc(O)ccc3c2=O)c(O)oc2cc(O)ccc12`
Reply: > 100 µM (inactive)

Ask: Please look at this molecule and report its GI50: CC1=C2CC3=C(C)C(=O)O[C@H]3C[C@@H](C)[C@@H]2CC1 [AMERICANOLIDE D]
Reply: > 100 µM (inactive)

Ask: Please look at this molecule and report its GI50: `O=c1[nH]/c(=C/c2ccc(OCc3ccccc3)cn2)c(=O)[nH]/c1=C/c1ccc(Cl)cc1`
Reply: 15.1 µM (inactive)

Ask: Please look at this molecule and report its GI50: `O=S(=O)(c1ccccc1)C(c1ccc2ccccc2n1)S(=O)(=O)c1ccccc1`
Reply: > 100 µM (inactive)

Values from ChEMBL document CHEMBL1201862
